- TARGET DESC: ALK (Homo sapiens, UniProt Q9UM73)
- Construct: host or cells: baculovirus expression system
- Sequence (Q9UM73 19-1620): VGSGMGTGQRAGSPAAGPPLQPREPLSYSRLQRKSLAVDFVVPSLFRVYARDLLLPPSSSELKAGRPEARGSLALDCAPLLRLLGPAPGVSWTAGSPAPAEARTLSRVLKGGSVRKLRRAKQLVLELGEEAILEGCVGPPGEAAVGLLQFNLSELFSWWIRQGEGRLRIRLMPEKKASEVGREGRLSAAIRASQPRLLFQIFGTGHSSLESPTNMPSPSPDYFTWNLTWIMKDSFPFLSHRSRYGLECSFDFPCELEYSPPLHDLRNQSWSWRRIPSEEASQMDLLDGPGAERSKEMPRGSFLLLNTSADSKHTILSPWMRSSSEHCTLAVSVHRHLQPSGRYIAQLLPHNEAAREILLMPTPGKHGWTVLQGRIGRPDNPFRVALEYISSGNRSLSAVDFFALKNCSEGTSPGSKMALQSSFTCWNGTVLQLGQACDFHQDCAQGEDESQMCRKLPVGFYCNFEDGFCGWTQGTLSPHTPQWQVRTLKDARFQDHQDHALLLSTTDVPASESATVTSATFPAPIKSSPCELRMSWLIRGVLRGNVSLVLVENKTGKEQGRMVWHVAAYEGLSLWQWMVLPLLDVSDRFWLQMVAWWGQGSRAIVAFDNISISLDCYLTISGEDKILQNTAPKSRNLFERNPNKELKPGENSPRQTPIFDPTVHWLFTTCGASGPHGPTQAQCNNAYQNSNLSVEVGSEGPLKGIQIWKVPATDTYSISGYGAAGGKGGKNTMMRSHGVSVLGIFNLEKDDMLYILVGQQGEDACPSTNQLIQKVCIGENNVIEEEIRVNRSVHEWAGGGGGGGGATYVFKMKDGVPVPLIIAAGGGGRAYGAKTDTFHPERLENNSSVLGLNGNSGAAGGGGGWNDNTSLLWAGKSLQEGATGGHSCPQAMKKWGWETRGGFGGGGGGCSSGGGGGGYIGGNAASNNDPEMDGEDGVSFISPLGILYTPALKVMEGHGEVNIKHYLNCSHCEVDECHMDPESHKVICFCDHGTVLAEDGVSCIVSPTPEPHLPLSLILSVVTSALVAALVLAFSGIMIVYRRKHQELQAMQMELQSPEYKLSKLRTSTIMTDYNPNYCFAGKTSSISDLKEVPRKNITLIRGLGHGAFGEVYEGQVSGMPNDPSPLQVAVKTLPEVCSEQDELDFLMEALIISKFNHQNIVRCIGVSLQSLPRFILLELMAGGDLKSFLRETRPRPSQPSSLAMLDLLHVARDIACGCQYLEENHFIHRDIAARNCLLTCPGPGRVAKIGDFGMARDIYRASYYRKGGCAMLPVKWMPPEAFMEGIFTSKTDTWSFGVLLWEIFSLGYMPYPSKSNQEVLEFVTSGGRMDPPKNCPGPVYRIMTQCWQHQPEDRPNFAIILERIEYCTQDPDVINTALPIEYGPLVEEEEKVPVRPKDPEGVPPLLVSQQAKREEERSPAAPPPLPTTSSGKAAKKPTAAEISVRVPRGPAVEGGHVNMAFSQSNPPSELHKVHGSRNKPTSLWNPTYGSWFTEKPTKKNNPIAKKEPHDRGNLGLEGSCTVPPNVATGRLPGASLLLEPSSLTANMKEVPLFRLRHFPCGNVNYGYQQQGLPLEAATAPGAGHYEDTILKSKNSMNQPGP
- PROCEDURE DETAILS: ALK Kinase Assay (ELISA/TRF, PLC-γ substrate)
- Format: biochemical
- CONDITIONS USED: ALK Kinase Inhibition; read-out: ALK Potency
pIC50: −log10 of the molar value.
PARAMETER MEASURED: pIC50

See these solved cases before continuing.
CC(C)(C)NS(=O)(=O)c1cccc(-c2ccc3cnc(Nc4ccc(CN5CCCC5)cc4)nn23)c1 ... 6.00 to 7.00
CC(=O)Nc1cccc(Nc2ncc3ccc(-c4cccc(S(=O)(=O)NC(C)(C)C)c4)n3n2)c1 ... 6.00 to 7.00
COc1cc(N2CCC(N3CCOCC3)CC2)ccc1Nc1ncc2ccc(-c3ccccc3OC(C)C)n2n1 ... > 7.00

Inquiry: Give the measured pIC50 of COc1ccccc1-c1ccc2cnc(Nc3ccc(N4CCN(CC(C)(C)O)CC4)cc3)nn12 .
Reply text: > 7.00

Inquiry: Follow-up entry: COc1cc(N2CCC(C)(N3CCOCC3)CC2)ccc1Nc1ncc2ccc(-c3ccccc3OC)n2n1
Reply text: > 7.00

Inquiry: Follow-up entry: CS(=O)(=O)c1cccc(-c2ccc3cnc(Nc4cccc(C5(O)CCNCC5)c4)nn23)c1
Reply text: 6.00 to 7.00

Inquiry: Follow-up entry: CN1CCN(c2ccc(Nc3ncc4c(Br)cc(-c5ccccc5)n4n3)cc2)CC1
Reply text: 6.00 to 7.00

Inquiry: Follow-up entry: COc1ccccc1-c1ccc2cnc(Nc3ccc(OCCN4CCCC4)cc3)nn12
Reply text: > 7.00
